Data credit: patent US20020010182A1

// melting point lookup, one value per entry

# TEST_SMILES, melting point
records = [
    ("Cc1ccc(C[C@@H]2CN(CC#Cc3cccnc3)CCN2C(=O)c2cc(C(F)(F)F)cc(C(F)(F)F)c2)cc1C.Cl.Cl", "140 to 150 °C"),
    ("CC(=O)c1cccc(C(=O)N2CCN(C(=O)c3cc(C(F)(F)F)cc(C(F)(F)F)c3)[C@H](Cc3c[nH]c4ccccc34)C2)c1", "186 to 187.5 °C"),
    ("COCCN(C)CCN1CCN(C(=O)c2cc(C(F)(F)F)cc(C(F)(F)F)c2)[C@H](Cc2ccc(C)c(C)c2)C1.Cl.Cl", "222 °C (dec.)"),
]

* * *

Listed here: items and their measured melting point.
RECORDED_ENDPOINT: melting point

# TEST_SMILES, RECORDED_ENDPOINT, RESULT
rows = [
    ("Cc1ccc(C[C@@H]2CN(CCCc3cccnc3)CCN2C(=O)c2cc(C(F)(F)F)cc(C(F)(F)F)c2)cc1C.Cl.Cl", "melting point", "163 to 168 °C"),
    ("Cl.Cl.O=C(c1cc(C(F)(F)F)cc(C(F)(F)F)c1)N1CCN(CC#CCN2CCSCC2)C[C@H]1Cc1c[nH]c2ccccc12", "melting point", "166 to 170 °C"),
    ("Cl.O=C(CN1CCN(C(=O)c2cc(C(F)(F)F)cc(C(F)(F)F)c2)[C@H](Cc2c[nH]c3ccccc23)C1)N1CCN(C2CCCC2)CC1", "melting point", "270 °C (dec.)"),
    ("Cc1ccc(C[C@@H]2CN(Cc3cnn(C)c3)CCN2C(=O)c2cc(C(F)(F)F)cc(C(F)(F)F)c2)cc1C.Cl", "melting point", "243 to 244 °C"),
]

* * *

Entries annotated with measured melting point

# MOLECULE, melting point
records = [
    ("Cl.Cn1cc(CN2CCN(C(=O)c3cc(C(F)(F)F)cc(C(F)(F)F)c3)[C@H](Cc3c[nH]c4ccccc34)C2)cn1", "122 to 136 °C"),
    ("Cl.Cl.O=C(c1cc(C(F)(F)F)cc(C(F)(F)F)c1)N1CCN(CC#CCN2CCSCC2)C[C@H]1Cc1ccc(F)cc1", "180 °C (dec.)"),
    ("Cc1ccc(C[C@@H]2CN(CC#CCN3CCN(C4CCCCC4)CC3)CCN2C(=O)c2cc(C(F)(F)F)cc(C(F)(F)F)c2)cc1C.Cl.Cl.Cl", "175 to 190 °C"),
    ("Cl.Cl.O=C(c1cc(C(F)(F)F)cc(C(F)(F)F)c1)N1CCN(CCN2CCOCC2)C[C@H]1Cc1c[nH]c2ccccc12", "170 to 176 °C"),
    ("Cl.Cl.O=C(c1cc(C(F)(F)F)cc(C(F)(F)F)c1)N1CCN(CCCN2CC3CCC(CC3)C2)C[C@H]1Cc1ccc(Cl)c(Cl)c1", "150 °C (dec.)"),
    ("CN(C)c1ccc(C(=O)CN2CCN(C(=O)c3cc(C(F)(F)F)cc(C(F)(F)F)c3)[C@H](Cc3c[nH]c4ccccc34)C2)cc1", "185 °C (dec.)"),
    ("Cl.O=C(CN1CCN(C(=O)c2cc(C(F)(F)F)cc(C(F)(F)F)c2)[C@H](Cc2c[nH]c3ccccc23)C1)c1ccc(F)c(F)c1", "171 °C (dec.)"),
    ("Cc1ccc(C[C@@H]2CN(CCCN3CCSCC3)CCN2C(=O)c2cc(C(F)(F)F)cc(C(F)(F)F)c2)cc1C.Cl.Cl", "272 °C (dec.)"),
    ("Cl.Cl.O=C(c1cc(C(F)(F)F)cc(C(F)(F)F)c1)N1CCN(CC#CCN2CCSCC2)C[C@H]1Cc1ccc2ccccc2c1", "152 to 156 °C"),
    ("Cc1ccc(C[C@@H]2CN(Cc3ccc([N+](=O)[O-])cc3)CCN2C(=O)c2cc(C(F)(F)F)cc(C(F)(F)F)c2)cc1C.Cl.Cl", "140 °C (dec.)"),
    ("Cc1ccc(C[C@@H]2CN(C/C=C/CN3CCOCC3)CCN2C(=O)c2cc(C(F)(F)F)cc(C(F)(F)F)c2)cc1C.Cl.Cl", "236 to 242 °C"),
    ("Cc1ccc(C[C@@H]2CN(CC#CCN3CCOCC3(C)C)CCN2C(=O)c2cc(C(F)(F)F)cc(C(F)(F)F)c2)cc1C.Cl.Cl", "180 to 190 °C"),
    ("Cc1ccc(C[C@@H]2CN(CCCN3CCOCC3)CCN2C(=O)c2cc(C(F)(F)F)cc(C(F)(F)F)c2)cc1C.Cl.Cl", "220 to 230 °C"),
    ("Cc1ccc(C[C@@H]2CN(CC#CCN3CCOC(CF)C3)CCN2C(=O)c2cc(C(F)(F)F)cc(C(F)(F)F)c2)cc1C.Cl.Cl (some centres unmarked)", "175 to 180 °C"),
]
